System: Platelet
experiment: Antiplatelet activity in human platelet rich plasma assessed as inhibition of arachidonic acid-induced platelet aggregation at 100 uM preincubated for 2 mins followed by arachidonic acid addition by turbidimetric method relative to control
Format: functional
Ranges used to classify inhibition at 100 µM: bucket 1 (below 2%), bucket 2 (2% to below 90%), bucket 3 (90% or more)

Observe how each entry below is paired with its result.
cpd_smiles=COc1ccc(/C=N/NC(=O)c2cc(C)nc3c2c(C)nn3-c2ccccc2)cc1 assay_target=Platelet label_value="bucket 2"
cpd_smiles=Cc1nn(-c2ccccc2)c2nc(C(F)(F)F)cc(C(=O)N/N=C/c3ccc(F)cc3)c12 assay_target=Platelet label_value="bucket 1"
cpd_smiles=Cc1cc(C(=O)N/N=C/c2ccc(Br)cc2)c2c(C)nn(-c3ccccc3)c2n1 assay_target=Platelet label_value="bucket 3"
cpd_smiles=Cc1cc(C(=O)N/N=C/c2ccc([N+](=O)[O-])cc2)c2c(C)nn(-c3ccccc3)c2n1 assay_target=Platelet label_value="bucket 3"
cpd_smiles=Cc1cc(C(=O)N/N=C/c2ccccc2)c2c(C)nn(-c3ccccc3)c2n1 assay_target=Platelet label_value="bucket 2"

// query Each compound maps to one class by inhibition at 100 µM. Which class for `Cc1nn(-c2ccccc2)c2nc(C(F)(F)F)cc(C(=O)N/N=C/c3ccccc3)c12` ?
// result bucket 1

// query Lab note: which band did `Cc1cc(C(=O)N/N=C/c2ccc(O)cc2)c2c(C)nn(-c3ccccc3)c2n1` land in?
// result bucket 3

// query Each compound maps to one class by inhibition at 100 µM. Which class for `Cc1nn(-c2ccccc2)c2nc(C(F)(F)F)cc(C(=O)N/N=C/c3ccc(O)cc3)c12` ?
// result bucket 2

// query Just checking, what class would you give `COc1ccc(/C=N/NC(=O)c2cc(C(F)(F)F)nc3c2c(C)nn3-c2ccccc2)cc1` here?
// result bucket 2

---

Test system: Plasma
experiment: Change in prothrombin time in human plasma at 100 uM incubated for 15 mins at room temperature and 2 mins at 37 degC in presence of calcium thromboplastin
Type: ADME, cell-free
test-readout: Activity

cpd_smiles=CCOc1ccc(/C=N/NC(=O)c2cc(C)nc3c2c(C)nn3-c2ccccc2)cc1 experimental_value=Non-Toxic
cpd_smiles=Cc1cc(C(=O)N/N=C/c2ccc(C#N)cc2)c2c(C)nn(-c3ccccc3)c2n1 experimental_value=Non-Toxic
cpd_smiles=Cc1cc(C(=O)N/N=C/c2ccc(Cl)cc2)c2c(C)nn(-c3ccccc3)c2n1 experimental_value=Non-Toxic
cpd_smiles=Cc1cc(C(=O)N/N=C/c2ccc([N+](=O)[O-])cc2)c2c(C)nn(-c3ccccc3)c2n1 experimental_value=Non-Toxic
cpd_smiles=Cc1ccc(/C=N/NC(=O)c2cc(C(F)(F)F)nc3c2c(C)nn3-c2ccccc2)cc1 experimental_value=Non-Toxic

Batch request: Activity per item, same order as input.
1. Cc1nn(-c2ccccc2)c2nc(C(F)(F)F)cc(C(=O)N/N=C/c3ccc(Cl)cc3)c12
2. Cc1cc(C(=O)N/N=C/c2ccccc2)c2c(C)nn(-c3ccccc3)c2n1
3. Cc1nn(-c2ccccc2)c2nc(C(F)(F)F)cc(C(=O)N/N=C/c3ccc(F)cc3)c12
4. Cc1nn(-c2ccccc2)c2nc(C(F)(F)F)cc(C(=O)N/N=C/c3ccc([N+](=O)[O-])cc3)c12

// result
Non-Toxic
Non-Toxic
Non-Toxic
Non-Toxic

Below are 3 molecules. Give each one its Activity.
1. Cc1nn(-c2ccccc2)c2nc(C(F)(F)F)cc(C(=O)N/N=C/c3ccccc3)c12
2. COc1ccc(/C=N/NC(=O)c2cc(C)nc3c2c(C)nn3-c2ccccc2)cc1
3. Cc1nn(-c2ccccc2)c2nc(C(F)(F)F)cc(C(=O)N/N=C/c3ccc(Br)cc3)c12

// result
Non-Toxic
Non-Toxic
Non-Toxic

I'm hoping you can list Activity for every molecule here, please.
1. Cc1ccc(/C=N/NC(=O)c2cc(C)nc3c2c(C)nn3-c2ccccc2)cc1
2. Cc1cc(C(=O)N/N=C/c2ccc(Br)cc2)c2c(C)nn(-c3ccccc3)c2n1
3. CCOc1ccc(/C=N/NC(=O)c2cc(C(F)(F)F)nc3c2c(C)nn3-c2ccccc2)cc1
4. Cc1cc(C(=O)N/N=C/c2ccc(F)cc2)c2c(C)nn(-c3ccccc3)c2n1
5. COc1ccc(/C=N/NC(=O)c2cc(C(F)(F)F)nc3c2c(C)nn3-c2ccccc2)cc1
6. Cc1cc(C(=O)N/N=C/c2ccc(O)cc2)c2c(C)nn(-c3ccccc3)c2n1

// result
1: Non-Toxic; 2: Non-Toxic; 3: Non-Toxic; 4: Non-Toxic; 5: Non-Toxic; 6: Non-Toxic

For each entry beneath this line, provide reported Activity.
1. Cc1nn(-c2ccccc2)c2nc(C(F)(F)F)cc(C(=O)N/N=C/c3ccc(O)cc3)c12
2. Cc1nn(-c2ccccc2)c2nc(C(F)(F)F)cc(C(=O)N/N=C/c3ccc(C#N)cc3)c12

// result
Non-Toxic
Non-Toxic
